Where do the numbers come from? From PubChem BioAssay (NCATS).

This section presents compounds with their documented max response values.
assay: qHTS assay for small molecule agonists of retinoid X receptor alpha signaling (AID 588544); settings: HEK293T RXRa-UAS-bla, beta-lactamase reporter, 18 h; 530 nm emission
Inconclusive results are not listed.
Answer with the number, then the unit.

Past entries and their recorded results:
COMPOUND: NC(N)=O
PROPERTY: max response
EXPERIMENTAL_RESULT: -18.6%
--
COMPOUND: CC1=CCC2CC1C2(C)C (stereo not given)
PROPERTY: max response
EXPERIMENTAL_RESULT: -0.211%
--
COMPOUND: OCc1ccccc1
PROPERTY: max response
EXPERIMENTAL_RESULT: -12.3%
--
COMPOUND: CO
PROPERTY: max response
EXPERIMENTAL_RESULT: -9.41%
--
COMPOUND: C[C@H](CCC(=O)O)[C@H]1CC[C@H]2[C@@H]3[C@H](O)C[C@@H]4C[C@H](O)CC[C@]4(C)[C@H]3C[C@H](O)[C@]12C
PROPERTY: max response
EXPERIMENTAL_RESULT: 9.07%
--
COMPOUND: OCl
PROPERTY: max response
EXPERIMENTAL_RESULT: -6.54%
--
COMPOUND: CC(C)[C@@H]1CC[C@@H](C)C[C@H]1O
PROPERTY: max response
EXPERIMENTAL_RESULT: -16.2%
--
COMPOUND: C/C=C/C=C/C(=O)O
PROPERTY: max response
EXPERIMENTAL_RESULT: -7.77%
--
COMPOUND: C[Si](C)(C)O[Si](C)(C)C
PROPERTY: max response
EXPERIMENTAL_RESULT: -7.56%
--
COMPOUND: CC(C)O
PROPERTY: max response
EXPERIMENTAL_RESULT: -10.8%

## Task // returns reported max response for input `Nc1ccc(N=Nc2ccccc2)c(N)n1`
## Result -10.9%

## Task What about this compound? `Cc1ccc(S(=O)(=O)O)cc1C`
## Result -1.2%

----------
test system: CP286; test: qHTS profiling for inhibitors of Plasmodium falciparum proliferation (AID 504749); also: nearly all actives have a fitted effect of over 60% in size; conditions: P. falciparum in erythrocytes, SYBR Green DNA, 72 h; series mostly up to 28.7 µM
Inconclusive results are not listed. Activity calls are given as the source filed them. Calls follow the shape of the dose curve; as a rule, active = well fitted inhibition curve with a large enough effect; inconclusive = small, poorly fitted or top-dose-only effect; inactive = flat fitted curve, though single readings scatter.
Returns: one label drawn from 1.0 (active), 0.0 (inactive)

Answered cases to consult:
COMPOUND: C=C1C(CCl)(CCl)C2(Cl)C(Cl)C(Cl)C1(Cl)C2(Cl)Cl (stereo unspecified)
CLASS: 1.0

COMPOUND: COc1ccc(/C=C/C(=O)OCCC(C)C)cc1
CLASS: 0.0

COMPOUND: O=C(O)/C=C/c1ccccc1
CLASS: 0.0

COMPOUND: Cc1c(Cl)cccc1Nc1ncccc1C(=O)O
CLASS: 0.0

COMPOUND: CN1c2c(nc(N)[nH]c2=O)NCC1CNc1ccc(C(=O)NC(CCC(=O)O)C(=O)O)cc1 (stereo unspecified)
CLASS: 0.0

Moving on to the next compound.
## Task Fill in: this test's call for CS(=O)(=O)OCC(O)C(O)COS(C)(=O)=O (stereo unspecified) is ___
## Result 0.0

----------
system: 7G8; assay: qHTS profiling for inhibitors of Plasmodium falciparum proliferation (AID 504749); also: nearly all actives have a fitted effect of over 60% in size; details: P. falciparum in erythrocytes, SYBR Green DNA, 72 h; series mostly up to 28.7 µM
Records with an inconclusive call do not appear. Active and inactive are the calls of the source. Calls follow the shape of the dose curve; as a rule, active = well fitted inhibition curve with a large enough effect; inconclusive = small, poorly fitted or top-dose-only effect; inactive = flat fitted curve, though single readings scatter.
API: response.call in active, inactive

MOLECULE: O=C(OCc1ccccc1)c1cccnc1
CLASS: inactive

## Task Record lookup: outcome of this test for `c1ccc(-n2cnnn2)cc1` ?
## Result inactive

## Task Can you check `CC(=O)[O][Al][O]C(C)=O` next?
## Result inactive

## Task Similarly, `CCOc1cc(-c2nccc3cc(OC)c(OC)cc23)cc(OCC)c1OCC` ?
## Result active

## Task Now this one: CC1CC(O)CC(C)(C)C1 (stereo unspecified)
## Result inactive

## Task Now consider C=CC(C)(O)CC/C=C(\C)CCC=C(C)C (stereo unspecified) and answer again.
## Result inactive

## Task Next molecule up: C=CCN1CCCC1CNC(=O)c1cc(S(N)(=O)=O)cc(OC)c1OC (stereo unspecified)
## Result inactive

## Task Note, next up: `CCCOC(=O)c1ccccc1O`
## Result inactive

## Task Query `O=C(O)c1cc(N=Nc2ccc(O)c(C(=O)O)c2)ccc1O` next
## Result inactive

## Task Check `CN(Cc1ccccc1)Cc1ccccc1` too.
## Result inactive

## Task Here is the next molecule: CC(=O)N[C@@H]1C(O[C@H]2O[C@H](C(=O)O)C(O)[C@H](O)[C@H]2O)[C@H](O)[C@@H](CO)O[C@H]1O[C@@H]1C(C(=O)O)O[C@@H](O[C@H]2[C@H](O)[C@@H](CO)OC(O)[C@@H]2NC(C)=O)[C@H](O)[C@H]1O (stereo partly specified)
## Result inactive

----------
assay: qHTS Assay for Identifying Gametocytocidal Compounds (AID 743244);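 also: % is scaled to controls: 0 for no effect and ±100 for the full control effect; actives lower the fluorescent signal which means gametocytes are killed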; conditions: P. falciparum 3D7 stage III-V gametocytes, alamarBlue, 72 h; stronger effect = lower value
Records with an inconclusive call do not appear.
Examples of compounds with documented max response follow.
Entry rule: numbers only, all in %.

Worked cases, max response given:
COMPOUND: CC(CC=O)CCCC(C)(C)O (stereo unspecified)
max response, %: 6.46
--
COMPOUND: CCOC(=O)[C@@H](N)CS
max response, %: 0.746
--
COMPOUND: NC(Cc1ccccc1)C(=O)O (stereo unspecified)
max response, %: 3.95

## Task Item `O=C(CCCCCCCCCCCCC1CCCC1)Nc1ccc(S(=O)(=O)c2ccc(NC(=O)CCCCCCCCCCCCC3CCCC3)cc2)cc1` has what recorded max response?
## Result 1.73

## Task Here is the next compound: `CC1=CC(=O)NS(=O)(=O)O1`
## Result -2.22

## Task Similarly, CCCCCCCCCCCCCCCCCCOCC(COP(=O)([O-])OCC[N+](C)(C)C)OC (stereo unspecified) ?
## Result 3.69

----------
test system: CP286; assay: qHTS profiling for inhibitors of Plasmodium falciparum proliferation (AID 504749); also: nearly all actives have a fitted effect of over 60% in size; conditions: P. falciparum in erythrocytes, SYBR Green DNA, 72 h; series mostly up to 28.7 µM
Inconclusive results are not listed. Activity calls are given as the source filed them. The call rests on the fitted dose curve; in most records, active means well fitted inhibition curve with a large enough effect; inconclusive means small, poorly fitted or top-dose-only effect; inactive means flat fitted curve, though single readings scatter.
Form entry, call: pick from Yes = active, No = inactive

MOLECULE: O=P(O)(O)CP(=O)(O)O
CLASS: No
//
MOLECULE: N=C(N)c1ccc(/C=C/c2ccc(C(=N)N)cc2O)cc1
CLASS: Yes
//
MOLECULE: C[Se]CC[C@H](N)C(=O)O
CLASS: No
//
MOLECULE: Cc1ccc(S(=O)(=O)NCl)cc1
CLASS: No
//
MOLECULE: FC(F)OC(Cl)C(F)(F)F (configuration not stated)
CLASS: No
//
MOLECULE: COc1ccc(/C=N/NC(=O)c2ccncc2)c(C(=O)O)c1OC
CLASS: No
//
MOLECULE: Cn1cc(NC(=O)c2cc(NC(=O)c3cc(NC=O)cn3C)cn2C)cc1C(=O)NCCC(=N)N
CLASS: Yes
//
MOLECULE: CN(C)c1ccc(C(=C2C=CC(=[N+](C)C)C=C2)c2c(O)c(S(=O)(=O)[O-])cc3cc(S(=O)(=O)O)ccc23)cc1
CLASS: No

## Task Called result for `CC1=CC(=O)NS(=O)(=O)O1`
## Result No

## Task Can you check `NC(=O)C1c2ccccc2CCc2ccccc21` next?
## Result No

## Task And then OC1OC[C@@H](O)[C@H](O)[C@@H]1O (some centres not stated) , what is it?
## Result No

## Task Continue with `COc1ccc(C(=O)c2ccc(C)cc2)c(O)c1`
## Result No

----------
test system: CP329; test: qHTS profiling for inhibitors of Plasmodium falciparum proliferation (AID 504749); also: nearly all actives have a fitted effect of over 60% in size; settings: P. falciparum in erythrocytes, SYBR Green DNA, 72 h; series mostly up to 28.7 µM
Inconclusive results are not listed. The source made the active and inactive calls. The call rests on the fitted dose curve; in most records, active means well fitted inhibition curve with a large enough effect; inconclusive means small, poorly fitted or top-dose-only effect; inactive means flat fitted curve, though single readings scatter.
Form entry, call: pick from active, inactive

Answered examples (5):
COMPOUND: CC1=C(/C=C/C(C)=C/C=C/C(C)=C/C(=O)Oc2c(C)c(C)c3c(c2C)CC[C@@](C)(CCC[C@H](C)CCC[C@H](C)CCCC(C)C)O3)C(C)(C)CCC1
CLASS: inactive
//
COMPOUND: CO/N=C(/C(=O)N[C@@H]1C(=O)N2C(C(=O)O)=C(COC(N)=O)CS[C@H]12)c1ccco1
CLASS: inactive
//
COMPOUND: CCCOC(=O)c1ccccc1O
CLASS: inactive
//
COMPOUND: ClC(Cl)Cl
CLASS: inactive
//
COMPOUND: Cn1cc(NC(=O)c2cc(NC(=O)c3cc(NC=O)cn3C)cn2C)cc1C(=O)NCCC(=N)N
CLASS: active

## Task Assay result, entry `Cn1c(O)c(N=NC(N)=S)c2ccccc21` — outcome?
## Result inactive

## Task What do you get for CC(CC=O)CCCC(C)(C)O (centres undefined) ?
## Result inactive

## Task Same thing, different compound: CCN(CC)CCCC(C)Nc1cc(/C=C/c2ccccc2Cl)nc2cc(Cl)ccc12 (centres undefined)
## Result active

## Task // same read-out, input: `CCOC(=S)SSC(=S)OCC`
## Result inactive

## Task Repeat with `O=P(O)(O)O`
## Result inactive

## Task Continue with `O=C(O)COc1ccc(CCNS(=O)(=O)c2ccccc2)s1`
## Result inactive

## Task Entry `CCCCC` please
## Result inactive

## Task Cool, now `O=C1c2ccccc2C(=O)C1c1ccc(Cl)cc1`
## Result inactive

## Task Thanks! And `CCCCO` ?
## Result inactive

## Task Okay, and `NC(=O)CC[C@@H]1NC(=O)[C@H](Cc2ccccc2)NC(=O)[C@H](Cc2ccc(O)cc2)NC(=O)[C@@H](N)CSSC[C@@H](C(=O)N2CCC[C@H]2C(=O)N[C@@H](CCCN=C(N)N)C(=O)NCC(N)=O)NC(=O)[C@H](CC(N)=O)NC1=O` ?
## Result inactive

## Task // same read-out, input: O=c1n(CC2CO2)c(=O)n(CC2CO2)c(=O)n1CC1CO1 (centres undefined)
## Result inactive
